Biological target: SARS-CoV-2 Beta (B.1.351) variant prefusion stabilized spike trimer protein (UniProt P0DTC2 14-1213)
Assay: ELISA
pEC50: −log10 of the molar value.

binder: 9-M12-A (antibody, V domains shown) VH: EVQLVESGGDLVKPGGSLKLSCTASGFTFSSYGMSWVRQTPDKRLEWVTTISSGGGYTYVPDSVKGRFTISRDNAKNTLYLHMSSLKSEDTAMYFCARPLIPTMVEAFDYWGQGTSLTVSS VL: SIVMTQTPKFLPVSAGDRVTMTCKASQSVGNNVAWYQQKPGQSPKLLIYYASNRYTGVPDRFTGSGSGADFTFTISSVQVEDLAVYFCQQHYSSPFTFGTGTKLEIK
pEC50: 9.33
//
binder: 10-J24-A (antibody, V domains shown) VH: EVQLVESGGGLVKPGGSLKLSCAASGFTFSSYAMSWVRQNPAKRLEWVATISGGGGFTYYPDSVKGRFTISRDNAKNTLYLQMNSLRSEDTAMYYCARDEDGKHDYFDYWGQGTTLTVSS VL: DIVMTQSHKFMSTSVGDRVSITCKASQDVGTAVAWYQQKPGQSPKLLIYWASTRHTGVPDRFTGSGSGTDFTLTISNVQSEDLADYFCQQYASYPLTFGGGTKLVIK
pEC50: 8.83
//
binder: 6-N1-A (antibody, V domains shown) VH: EVQLQQSGPELVKPGASVKISCKASGYTFTDYYMNWVQQSHGKSLEWIGDINPNNGGIRYNQNFKGKATLTVEKSSSTAYMELRSLTSEDSAVYYCARRQVFYDGYYDYAMDYWGQGTSVTVSS VL: DIVLTQSPASLAVSLGQRATISCRASQSVSTSSYSYMHWYQQKPGQPPKLLIKYASNLESGVPARFSGSGSGTDFTLNIHPVEEEDTATYFCQHNWEIPPTFGGGTKLEIK
pEC50: 8.28
